test: TOX21_p53_BLA_p3_viability: Viability Assessment in the Tox21 HCT-116 p53 Agonism Beta-lactamase Assay, Phase 3 (AID 2283593);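 note: cells exposed to compound for 16 h before reading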
Results filed as inconclusive are left out. Activity calls are given as the source filed them. Rule for the calls: active = hit-call score of the fitted dose curve at least 0.9, where 1 is the maximum; inconclusive = response in the unintended direction; inactive = score below 0.9.
// allowed return values: active, inactive

{"columns": ["compound", "class-label"],
 "data": [
  ["CCCCCCCCCC(=O)NO", "inactive"],
  ["CCOc1cc([N+](=O)[O-])c(OCC)cc1N1CCOCC1", "inactive"],
  ["C[C@@H](O)[C@H]1C(=O)N2C(C(=O)[O-])=C(SC3Cn4cnc[n+]4C3)[C@H](C)[C@H]12 (stereo partly specified)", "inactive"],
  ["COC(OC)OC", "inactive"]
]}

Moving on to another compound below.
Q: Lab log entry: O=C(NCCNCC(O)COc1ccc(O)cc1)N1CCOCC1 (stereo unspecified) — outcome as called in the assay?
Ans: inactive

###

test: ATG_E_Box_CIS: Attagene CIS-FACTORIAL HepG2 Assay for human Enhancer Box (E-box) (AID 2282936); details: HepG2 E-box cis-reporter transcription, actives raise or lower the signal
Calls of active or inactive are those of the source. The calls were made as follows: active = hit-call score of the fitted dose curve at least 0.9, where 1 is the maximum; inactive = score below 0.9.
Can you answer with just one of these options? true (1) = active, false (0) = inactive

Consider the worked cases shown below.
{"columns": ["molecule", "class-label"],
 "data": [
  ["CC1=CCCC(C)(C)C12CCC(C)O2 (centres undefined)", "false (0)"],
  ["COc1ccc2ccccc2c1", "false (0)"],
  ["CCCC[N+]1(C)CCCC1", "false (0)"],
  ["[O-][n+]1ccc(Cl)cc1", "false (0)"],
  ["CCCCCCC(O)CCCCCCCCCCC(=O)OC (centres undefined)", "false (0)"],
  ["CC1=C(CC(=O)O)c2cc(F)ccc2/C1=C\\c1ccc(S(C)=O)cc1 (centres undefined)", "true (1)"],
  ["CCCC(=O)OC/C=C(\\C)CCC=C(C)C", "false (0)"],
  ["CCCC(=O)OC", "false (0)"],
  ["O=C(O)c1ccccc1C(=O)O", "false (0)"],
  ["OCCOCCOCCOCCOCCO", "false (0)"]
]}

Q: Record lookup: outcome of this test for `Oc1ccc(Cl)cc1C1CCCC1` ?
Ans: false (0)

Q: Which outcome was assigned to `Cc1ccccc1S(N)(=O)=O` in this test?
Ans: false (0)

Q: Status in this test for `O=S(=O)(O)c1cccc2ccccc12` ?
Ans: false (0)

Q: Would you mind telling me which call this test gave `NC(=O)c1ccc([N+](=O)[O-])cc1Cl` ?
Ans: false (0)

###

experiment: TOX21_p53_BLA_p2_viability: Viability Assessment in the Tox21 HCT-116 p53 Agonism Beta-lactamase Assay, Phase 2 (AID 2283591);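 note: compound exposure lasted 16 h at 37 °C; actives lower the ATP signal meaning cytotoxicity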
Results filed as inconclusive are left out. Active and inactive are the calls of the source. How the source made its calls: active means hit-call score of the fitted dose curve at least 0.9, where 1 is the maximum; inconclusive means response in the unintended direction; inactive means score below 0.9.
Form entry, call: pick from active, inactive

Worked cases, answers included:
{"columns": ["compound", "class-label"],
 "data": [
  ["N#CCC(=O)O", "inactive"],
  ["Cc1cccc([N+](=O)[O-])c1C(=O)O", "inactive"],
  ["CC(N)C(=O)OC(C)(C)Cc1ccc(Cl)cc1 (configuration not stated)", "inactive"]
]}

Q: Give the logged outcome of this assay for the following compound: `CC(=O)N[C@@H](CS)C(=O)O`
Ans: inactive

Q: In this assay, the call recorded for `CO[C@H]1O[C@H](CO)[C@@H](O)[C@H](O)[C@H]1O` was what?
Ans: inactive

Q: # fetch the recorded call for `CCOC(=O)Cn1cccc1-c1nc(-c2ccc(OC)cc2)c(-c2ccc(OC)cc2)s1` here
Ans: inactive
